Quick reference for Bliss excess among some compounds
# System: HT-3 (Cervical Carcinoma)
# Experimental Details: Bliss excess, mean over the matrix (fraction); higher = more synergy;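 also: after 72 h of two-drug dosing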

Bliss excess lookup needed for CC1(C)CCC(CN2CCN(c3ccc(C(=O)NS(=O)(=O)c4ccc(NCC5CCOCC5)c([N+](=O)[O-])c4)c(Oc4cnc5[nH]ccc5c4)c3)CC2)=C(c2ccc(Cl)cc2)C1 [Venetoclax] + Cc1cc2ncnn2cc1Nc1ncc2c(n1)n(C1CCOCC1)c(=O)n2C [AZD7648] (first compound max 1 µM, 7x7, partner max 10 µM) , thanks.
-0.016

Next entry: COc1nnc2ccc(N3CCC(c4ccc(OCCN5CCN(C)C(=O)[C@H]5C)cc4)CC3)nn12 [AZD5153] + Cc1c2c(nn1C)CSCc1cc(n(C)n1)CSc1cc(c3ccccc3c1)OCCCc1c(C(=O)O)n(C)c3c-2c(Cl)ccc13 [AZD5991] (first compound max 1 µM, 7x7, partner max 1 µM)
0.0362

* * *

# Test system: NCI-H835 (Other Solid Carcinomas)
# Experimental Details: Bliss excess, mean over the matrix (fraction); higher = more synergy
Mark n for Bliss excess values under 0.02, and y for everything at or above.

Sample answers from the record:
Compound	Classification
C[C@@H]1COCCN1c1cc(C2([S@](C)(=N)=O)CC2)nc(-c2ccnc3[nH]ccc23)n1 [AZD6738] + Nc1ccn([C@@H]2O[C@H](CO)[C@@H](O)C2(F)F)c(=O)n1 [Gemcitabine] (first compound max 10 µM, 7x7, partner max 0.3 µM)	y
NC1(C(=O)N[C@@H](CCO)c2ccc(Cl)cc2)CCN(c2ncnc3[nH]ccc23)CC1 [Capivasertib] + CC(=O)c1c(C)c2cnc(Nc3ccc(N4CCNCC4)cn3)nc2n(C2CCCC2)c1=O [Palbociclib] (first compound max 10 µM, 7x7, partner max 10 µM)	n
COc1cc2ncnc(Nc3ccc(F)c(Cl)c3)c2cc1OCCCN1CCOCC1 [Gefitinib] + CC(C)n1c(=O)n(C)c2cnc3cc(F)c(-c4ccc(OCCCN5CCCCC5)nc4)cc3c21 [AZD1390] (first compound max 10 µM, 7x7, partner max 0.3 µM)	n

Could you verify whether the entry C[C@@H](Nc1cc(F)cc(F)c1)c1cc(C(=O)N(C)C)cc2c(=O)cc(N3CCOCC3)oc12 [AZD8186] + C1CN(CCC1(C(=O)N[C@@H](CCO)C2=CC=C(C=C2)Cl)N)C3=NC=NC4=C3C=CN4 [AZD5363] (first compound max 10 µM, 7x7, partner max 10 µM) shows Bliss excess of no less than 0.02?
n

Next entry: CN(CCO)CC[C@H](CSc1ccccc1)Nc1ccc(S(=O)(=O)NC(=O)c2ccc(N3CCC([C@@H](O)c4ccccc4-c4ccc(Cl)cc4)CC3)cc2)cc1S(=O)(=O)C(F)(F)F [AZD4320] + CS(=O)(=O)CCNCc1ccc(-c2ccc3ncnc(Nc4ccc(OCc5cccc(F)c5)c(Cl)c4)c3c2)o1 [Lapatinib] (first compound max 1 µM, 7x7, partner max 10 µM)
y

Next entry: COc1nnc2ccc(N3CCC(c4ccc(OCCN5CCN(C)C(=O)[C@H]5C)cc4)CC3)nn12 [AZD5153] + Cn1cnc2c(F)c(Nc3ccc(Br)cc3Cl)c(C(=O)NOCCO)cc21 [Selumetinib] (first compound max 1 µM, 7x7, partner max 10 µM)
n

Next entry: COc1cccc2c1C(=O)c1c(O)c3c(c(O)c1C2=O)C[C@@](O)(C(=O)CO)C[C@@H]3O[C@H]1C[C@H](N)[C@H](O)[C@H](C)O1 [Doxorubicin] + Cc1cc2ncnn2cc1Nc1ncc2c(n1)n(C1CCOCC1)c(=O)n2C [AZD7648] (first compound max 1 µM, 7x7, partner max 10 µM)
y
